assay: Neurotoxicity in Sprague-Dawley rat at 30 mg/kg, po measured after 2 hrs by rotarod test; assay type: toxicity, organism-based; settings: in vivo
measurement name: Activity

As a guide, the following entries are already answered.
Cc1cccc(C)c1OCC(=O)NC(C)CO (stereo not given)    Non-Toxic
Cc1cccc(C)c1OCC(=O)N[C@H](C)CO    Non-Toxic
CNC(=O)C(C)NC(=O)COc1c(C)cccc1C (stereo not given)    Non-Toxic
Cc1cccc(C)c1OCC(=O)NCC(C)O (stereo not given)    Non-Toxic

// next item, Activity requested
Exam item: # lookup: Activity of CCC(O)CNC(=O)COc1c(C)cccc1C (stereo not given)
Marked response: Non-Toxic
